# protocol_description: Fraction unbound in cynomolgus monkey blood
# Type: ADME, tissue-based, Macaca fascicularis
property_name: fraction unbound
Give the value as a plain number.

Qu. Given the compound CN1C(=O)[C@@H](NC(=O)c2nnc(Cc3ccccc3)[nH]2)COc2ccccc21 , what is its reported fraction unbound?
Ans. 0.11

###

Below is a list of entries, each paired with its recorded pIC50 value.
# test_target: Receptor-interacting serine/threonine-protein kinase 1 (Homo sapiens, UniProt Q13546)
# Sequence (Q13546 whole entry, the tested form may be a part): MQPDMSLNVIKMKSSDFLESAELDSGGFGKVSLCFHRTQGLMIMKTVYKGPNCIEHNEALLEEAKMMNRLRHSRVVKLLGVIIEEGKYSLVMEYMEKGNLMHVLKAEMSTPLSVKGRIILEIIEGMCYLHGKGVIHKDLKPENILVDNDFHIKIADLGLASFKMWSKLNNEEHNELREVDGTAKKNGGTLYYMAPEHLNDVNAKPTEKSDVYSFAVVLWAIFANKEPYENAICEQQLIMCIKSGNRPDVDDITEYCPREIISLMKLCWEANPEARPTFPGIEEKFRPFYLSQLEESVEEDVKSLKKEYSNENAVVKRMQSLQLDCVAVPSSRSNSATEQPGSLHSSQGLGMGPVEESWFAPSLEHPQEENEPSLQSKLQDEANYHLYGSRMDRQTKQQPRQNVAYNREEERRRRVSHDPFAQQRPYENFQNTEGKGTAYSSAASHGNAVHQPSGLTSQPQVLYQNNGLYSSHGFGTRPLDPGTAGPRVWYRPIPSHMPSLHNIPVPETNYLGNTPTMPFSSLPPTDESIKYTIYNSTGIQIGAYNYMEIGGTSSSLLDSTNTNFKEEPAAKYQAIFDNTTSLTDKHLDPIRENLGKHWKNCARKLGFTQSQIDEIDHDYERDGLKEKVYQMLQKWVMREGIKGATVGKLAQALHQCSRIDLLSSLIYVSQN
# protocol_description: Inhibition of human RIP1 (1 to 375 residues) expressed in baculovirus infected insect cells preincubated for 1 hr followed by ATP addition measured after 5 hrs by ADP-Glo luminescence assay
// pIC50 is dimensionless: -log10 of concentration (M)

Example results:
{"smiles_representation": "COC(=O)Nc1ccc2c(c1)N(C)C(=O)[C@@H](NC(=O)c1cc(Cc3ccccc3)on1)CO2", "property_name": "pIC50", "readout_value": 9.49}
{"smiles_representation": "CN1C(=O)[C@@H](NC(=O)c2cc(Cc3ccccc3)on2)COc2ccc(-c3cc[nH]n3)cc21", "property_name": "pIC50", "readout_value": 9.00}
{"smiles_representation": "CN1C(=O)[C@@H](NC(=O)c2cc(Cc3ccccc3)n(C)n2)COc2ccccc21", "property_name": "pIC50", "readout_value": 9.40}
{"smiles_representation": "CN1C(=O)[C@@H](NC(=O)c2noc(Cc3ccccc3)n2)COc2ccccc21", "property_name": "pIC50", "readout_value": 9.30}
{"smiles_representation": "CC(=O)Nc1ccc2c(c1)N(C)C(=O)[C@@H](NC(=O)c1cc(Cc3ccccc3)on1)CO2", "property_name": "pIC50", "readout_value": 9.49}

Please find the next compound below.
Qu. For the record CN1C(=O)[C@@H](NC(=O)c2ncc(Cc3ccccc3)o2)COc2ccccc21 , what value of pIC50 is listed for Receptor-interacting serine/threonine-protein kinase 1 (Homo sapiens, UniProt Q13546)?
Ans. 10.30

Source: ChEMBL document CHEMBL3997808
